# Test system: A549 human lung cancer cells
# experiment.summary: Trypan Blue cell viability/growth assay, A549 cells
# Assay type: cell-based
# run.parameters: Homo sapiens, A549; 96 hrs treatment, Trypan Blue exclusion; read-out: IC50 against the growth of A549 human lung cancer cells
observable: pIC50
Lab note — pIC50 values are minus log10 of concentrations in M.

Exercise: Report value: pIC50, system: A549 human lung cancer cells, compound: COc1ccccc1-n1cc(COC(=O)C2CCn3c(C(=O)c4ccccc4)ccc32)nn1 (racemic) [PRC-15K]
Solution: 7.62

meta.source: patent US10058618B2
